Just for reference, patent US20240393292A1 is where these values come from.

System: IgE antibodies from patients
Assay info: Wheat epitope mapping (2): overlapping 10-amino-acid peptide fragments shifted by one amino acid;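 on epitope sequence binding to IgE antibody, rank (Key/Preferably/More preferably): key of grades: preferably = shorter partial sequence still acting as epitope; more preferably = sequence improving IgE binding; key = particularly important sequence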
Assay type: binding, human
Condition set: serum of patient P8 (WDEIA)
Observable: epitope sequence binding to IgE antibody, rank (Key/Preferably/More preferably)

Solved cases below.
1757 (KVGYNP; REGION 1..6: note = epitope) [compound 1757] :: Key
1792 (SGKELE; REGION 1..6: note = epitope) [compound 1792] :: Key
1913 (QVPLVQQ; REGION 1..7: note = epitope) [compound 1913] :: Key
1841 (YTVRTLQ; REGION 1..7: note = epitope) [compound 1841] :: Preferably
1914 (QQFPGQQ; REGION 1..7: note = epitope) [compound 1914] :: Key
1842 (TVRTLQ; REGION 1..6: note = epitope) [compound 1842] :: Key
1912 (QVPLVQQQ; REGION 1..8: note = epitope) [compound 1912] :: Preferably

Consider the additional substance presented here.
Prompt line: // fetch epitope sequence binding to IgE antibody, rank (Key/Preferably/More preferably); item: 1756 (VSSYLKK; REGION 1..7: note = epitope) [compound 1756] ; system: IgE antibodies from patients
Response line: Key

###

System: IgE antibodies from patients
Assay info: Wheat epitope mapping (2): overlapping 10-amino-acid peptide fragments shifted by one amino acid
Type: binding, human
Condition set: serum of patient P7 (WDEIA); partial sequence
Observable: Epitope sequence binding to IgE antibody, rank of the sequence

2553 (QLVQ; REGION 1..4: note = epitope) [compound 2553] :: Key
2552 (QLVQQLCC; REGION 1..8: note = epitope) [compound 2552] :: Preferably
2497 (QVSF; REGION 1..4: note = epitope) [compound 2497] :: Key
2633 (KEAAEM; REGION 1..6: note = epitope) [compound 2633] :: Preferably

Prompt line: Query Epitope sequence binding to IgE antibody, rank of the sequence for 2634 (EAAE; REGION 1..4: note = epitope) [compound 2634]
Response line: Key

###

System: IgE antibodies from patients
Assay info: Wheat epitope mapping (2): overlapping 10-amino-acid peptide fragments shifted by one amino acid;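 on Rank of partial sequence as epitope binding to IgE antibody: key = sequence deemed particularly important within the common 15-residue sequence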
Format: binding, human
Condition set: serum of patient P21 (WDEIA); sequence without X
Observable: Rank of partial sequence as epitope binding to IgE antibody

Past entries and their recorded results:
1446 (PQQPISQQQ; REGION 1..9: note = epitope) [compound 1446] :: Preferably
1586 (QQPFPQTQQP; REGION 1..10: note = epitope) [compound 1586] :: More preferably
1447 (QQPISQQQ; REGION 1..8: note = epitope) [compound 1447] :: Key
1445 (YLQPQ; REGION 1..5: note = epitope) [compound 1445] :: Key
1619 (FVPISG; REGION 1..6: note = epitope) [compound 1619] :: Key
1444 (YLQPQQPIS; REGION 1..9: note = epitope) [compound 1444] :: Preferably
1542 (QVPLVQQQQ; REGION 1..9: note = epitope) [compound 1542] :: More preferably
1698 (KEAANFT; REGION 1..7: note = epitope) [compound 1698] :: More preferably
1699 (EAANFT; REGION 1..6: note = epitope) [compound 1699] :: Preferably

Below: the item to evaluate.
Prompt line: Provide measured Rank of partial sequence as epitope binding to IgE antibody value, entry: 1543 (QVPLVQQ; REGION 1..7: note = epitope) [compound 1543]
Response line: Preferably

###

System: IgE antibodies from patients
Assay info: Wheat epitope mapping (2): overlapping 10-amino-acid peptide fragments shifted by one amino acid
Format: binding, human
Condition set: serum of patient P35 (WDEIA); partial sequence
Observable: Epitope sequence binding to IgE antibody, rank of the sequence

Check out these entries, answers already filled in.
2658 (FEKEAAE; REGION 1..7: note = epitope) [compound 2658] :: Key
2592 (YQLVQQ; REGION 1..6: note = epitope) [compound 2592] :: Preferably
2660 (EMNKRSF; REGION 1..7: note = epitope) [compound 2660] :: Key
2694 (YKGPTL; REGION 1..6: note = epitope) [compound 2694] :: Key
2593 (QLVQ; REGION 1..4: note = epitope) [compound 2593] :: Key

// next item, Epitope sequence binding to IgE antibody, rank of the sequence requested
Prompt line: Using known records, supply Epitope sequence binding to IgE antibody, rank of the sequence for 2659 (EAAEMNKRSF; REGION 1..10: note = epitope) [compound 2659]
Response line: Preferably

###

System: IgE antibodies from patients
Assay info: Wheat epitope mapping (2): overlapping 10-amino-acid peptide fragments shifted by one amino acid
Assay type: binding, human
Condition set: serum of patient P29 (WDEIA); partial sequence
Protocol: The peptides to be synthesized were shifted by one amino acid. The library was prepared by the same procedure as described above in (A), and the presence or absence of binding of an IgE antibody present in the serum of a patient to each peptide fragment was measured by the same technique as described above. […]
Observable: Epitope sequence binding to IgE antibody, rank of the sequence

Solved cases (5 shown):
2578 (YQLVQQL; REGION 1..7: note = epitope) [compound 2578] :: Key
2735 (GIGTVPVGRV; REGION 1..10: note = epitope) [compound 2735] :: Key
2734 (YKIGG; REGION 1..5: note = epitope) [compound 2734] :: Key
2733 (YKIGGI; REGION 1..6: note = epitope) [compound 2733] :: Preferably
2688 (YKGPTL; REGION 1..6: note = epitope) [compound 2688] :: Key

Prompt line: Supply recorded Epitope sequence binding to IgE antibody, rank of the sequence for 2509 (QVSF; REGION 1..4: note = epitope) [compound 2509] here.
Response line: Key

Prompt line: Specify Epitope sequence binding to IgE antibody, rank of the sequence for 2649 (KEAAE; REGION 1..5: note = epitope) [compound 2649] and stop.
Response line: Preferably

Prompt line: Return the recorded Epitope sequence binding to IgE antibody, rank of the sequence value; entry: 2510 (PSQLNPQ; REGION 1..7: note = epitope) [compound 2510]
Response line: Key

###

Tested on: IgE antibodies from patients
Assay info: Wheat epitope mapping (2): overlapping 10-amino-acid peptide fragments shifted by one amino acid
Assay type: binding, human
Condition set: serum of patient P21 (WDEIA); sequence without X
Observable: Epitope sequence binding to IgE antibody, rank of the sequence

Below are worked cases with known answers.
1190 (QQFPPQQPYP; REGION 1..10: note = epitope) [compound 1190] :: Key
1188 (QQFPPQQ; REGION 1..7: note = epitope) [compound 1188] :: Preferably
1236 (PQQPP; REGION 1..5: note = epitope) [compound 1236] :: Key
1189 (QQFPPQ; REGION 1..6: note = epitope) [compound 1189] :: Key

Prompt line: Assign Epitope sequence binding to IgE antibody, rank of the sequence to the following record: 1393 (QPLPPQQQ; REGION 1..8: note = epitope) [compound 1393]
Response line: Preferably

Prompt line: Kindly indicate its recorded Epitope sequence binding to IgE antibody, rank of the sequence. Item: 1394 (QPLP; REGION 1..4: note = epitope) [compound 1394]
Response line: Key

###

System: IgE antibodies from patients
Assay info: Wheat epitope mapping (2): overlapping 10-amino-acid peptide fragments shifted by one amino acid;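 on Rank of partial sequence as epitope binding to IgE antibody: key = sequence deemed particularly important within the common 15-residue sequence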
Assay type: binding, human
Condition set: serum of patient P32 (WDEIA); sequence without X
Observable: Rank of partial sequence as epitope binding to IgE antibody

1634 (YNPDKVPF; REGION 1..8: note = epitope) [compound 1634] :: Preferably
1635 (YNPD; REGION 1..4: note = epitope) [compound 1635] :: Key
1478 (YLQPQQPIS; REGION 1..9: note = epitope) [compound 1478] :: Key
1477 (YLQPQQPISQ; REGION 1..10: note = epitope) [compound 1477] :: Preferably

###

Test system: IgE antibodies from patients
Assay info: Wheat epitope mapping (2): overlapping 10-amino-acid peptide fragments shifted by one amino acid;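 on Rank of partial sequence as epitope binding to IgE antibody: key = sequence deemed particularly important within the common 15-residue sequence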
Format: binding, human
Condition set: serum of patient P34 (WDEIA); sequence without X
Observable: Rank of partial sequence as epitope binding to IgE antibody

1548 (QVPLVQQQ; REGION 1..8: note = epitope) [compound 1548] :: Preferably
1551 (QQQQFLGQ; REGION 1..8: note = epitope) [compound 1551] :: Preferably

###

Tested on: IgE antibodies from patients
Assay info: Wheat epitope mapping (2): overlapping 10-amino-acid peptide fragments shifted by one amino acid
Type: binding, human
Condition set: serum of patient P3 (WDEIA); sequence without X
Observable: Epitope sequence binding to IgE antibody, rank of the sequence

1409 (QPQQPISQQQ; REGION 1..10: note = epitope) [compound 1409] :: Preferably
1305 (NRRALR; REGION 1..6: note = epitope) [compound 1305] :: Key
1411 (QQPISQQQAQ; REGION 1..10: note = epitope) [compound 1411] :: Preferably
